- Assayed system: recombinant human Aggrecanase-2 Agg2-Phe628 (Homo sapiens, UniProt Q9UNA0)
- Sequence (Q9UNA0 262-628 limits assumed): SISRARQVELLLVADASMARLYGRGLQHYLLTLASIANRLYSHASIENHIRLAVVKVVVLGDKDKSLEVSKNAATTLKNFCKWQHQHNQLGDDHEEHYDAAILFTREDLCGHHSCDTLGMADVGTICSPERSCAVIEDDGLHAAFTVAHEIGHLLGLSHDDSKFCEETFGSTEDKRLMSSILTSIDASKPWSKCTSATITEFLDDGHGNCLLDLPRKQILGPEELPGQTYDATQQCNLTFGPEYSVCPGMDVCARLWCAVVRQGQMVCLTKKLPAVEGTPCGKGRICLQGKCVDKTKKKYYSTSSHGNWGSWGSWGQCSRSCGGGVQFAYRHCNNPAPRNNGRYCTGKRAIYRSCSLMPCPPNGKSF
- Assay protocol: Aggrecanase 2 in vitro enzyme assay (Agg-2 FRET, quenched fluorescent peptide substrate)
- Type: biochemical
- Design: purified recombinant human Aggrecanase-2 Agg2-Phe628 (MW=41,737); This is a truncated form of full-length human aggrecanase-2; made in house; host or cells: CHO cells
- Cond: read-out: Agg-2 FRET Median IC50
// log10 IC50 lookup, one value per entry
Attribute measured: log10 IC50 (log10 of the value in nM)

INSERT INTO measurements (compound, numeric_result) VALUES
  ('O=C(COc1ccccc1)NC(c1ccccc1)c1cc(Br)c2cccnc2c1O (stereo not shown)', 3.39),
  ('Cc1ccc(OCC(=O)NC(c2ccccc2)c2ccc3cccnc3c2O)cc1 (stereo not shown)', 3.39),
  ('Cn1nnc2cc(C(NC(=O)COc3ccccc3)c3cc(Cl)c4cccnc4c3O)ccc21 (stereo not shown)', 3.11),
  ('O=C(COc1ccccc1)NC(c1cc2c(cc1Cl)OCO2)c1cc(Cl)c2cccnc2c1O (stereo not shown)', 3.14),
  ('O=C(COc1ccccc1)NC(c1cc(Cl)c2cccnc2c1O)c1cccc2[nH]ccc12 (stereo not shown)', 3.32),
  ('O=C(COc1ccc(Oc2ccccc2)cc1)NC(c1ccccc1)c1ccc2cccnc2c1O (stereo not shown)', 2.96),
  ('O=C(COc1ccccc1)NC(c1cccnc1)c1cc(Cl)c2cccnc2c1O (stereo not shown)', 3.28),
  ('O=C(CNCc1ccccc1)NC(c1cccc([N+](=O)[O-])c1)c1cc(Cl)c2cccnc2c1O (stereo not shown)', 2.88),
  ('CCOC(=O)Cc1cccc(C(NC(=O)COc2ccccc2)c2cc(Cl)c3cccnc3c2O)c1 (stereo not shown)', 3.16),
  ('CN(C)c1ccc(C(NC(=O)COc2ccccc2)c2ccc3cccnc3c2O)cc1 (stereo not shown)', 3.74),
  ('CN(CC(=O)NC(c1cccc(F)c1)c1cc(Cl)c2cccnc2c1O)Cc1ccccc1 (stereo not shown)', 3.16),
  ('O=C(COc1ccccc1)NC(c1ccc2c(c1)OCO2)c1cc(Cl)c2cccnc2c1O (stereo not shown)', 3.19),
  ('CN(CC(=O)NC(c1cccc([N+](=O)[O-])c1)c1cc(Cl)c2cccnc2c1O)c1ccccc1 (stereo not shown)', 2.75),
  ('Cc1ccc(C(NC(=O)COc2ccccc2)c2cc(Cl)c3cccnc3c2O)o1 (stereo not shown)', 3.37),
  ('CC(=O)NC(c1ccccc1)c1cc(Cl)c2cccnc2c1O (stereo not shown)', 4.29),
  ('COc1cccc(C(NC(=O)COc2ccccc2)c2cc(Cl)c3cccnc3c2O)c1 (stereo not shown)', 3.26),
  ('COc1ccc(OCC(=O)NC(c2ccc(OC)cc2)c2ccc3cccnc3c2O)cc1 (stereo not shown)', 3.65),
  ('O=C(COc1ccccc1)NC(c1cccc(F)c1)c1ccc2cccnc2c1O (stereo not shown)', 3.44),
  ('O=C(COc1ccccc1)NC(c1cc([N+](=O)[O-])ccc1Cl)c1cc(Cl)c2cccnc2c1O (stereo not shown)', 2.72),
  ('COc1cc(OC)cc(C(NC(=O)COc2ccccc2)c2cc(Cl)c3cccnc3c2O)c1 (stereo not shown)', 3.04),
  ('O=C(COc1ccccc1)NC(c1ccc(Cl)c(Cl)c1)c1cc(Cl)c2cccnc2c1O (stereo not shown)', 3.13),
  ('O=C(CCCc1ccccc1)NC(c1cccc([N+](=O)[O-])c1)c1cc(Cl)c2cccnc2c1O (stereo not shown)', 3.06),
  ('Cc1ccccc1C(NC(=O)COc1ccccc1)c1cc(C)c2cccnc2c1O (stereo not shown)', 3.55),
  ('O=C(Cc1ccccc1)NC(c1ccccc1Cl)c1cc(Cl)c2cccnc2c1O (stereo not shown)', 3.19),
  ('O=C(COc1ccccc1)NC(c1ccc(-c2csnn2)cc1)c1cc(Cl)c2cccnc2c1O (stereo not shown)', 3.03),
  ('CC(=O)c1ccc(OCC(=O)NC(c2cccc([N+](=O)[O-])c2)c2cc(Cl)c3cccnc3c2O)cc1 (stereo not shown)', 3.37),
  ('Cc1ccc(C)c(C(NC(=O)COc2ccccc2)c2cc(Cl)c3cccnc3c2O)c1 (stereo not shown)', 3.17),
  ('O=C(COc1ccc(Cl)cc1)NC(c1ccccc1)c1cc(Cl)c2cccnc2c1O (stereo not shown)', 3.01),
  ('Cc1ccc(C(NC(=O)CN(C)Cc2ccccc2)c2cc(Cl)c3cccnc3c2O)cc1 (stereo not shown)', 3.11),
  ('O=C(COc1ccccc1)NC(c1ccccc1)c1cc(N2CCCC2)c2cccnc2c1O (stereo not shown)', 4.02),
  ('COc1ccc(C(NC(=O)COc2cccnc2)c2cc(Cl)c3cccnc3c2O)cc1 (stereo not shown)', 3.47),
  ('Cc1ccc(C(NC(=O)COc2ccccc2)c2ccc3cccnc3c2O)cc1 (stereo not shown)', 3.48),
  ('O=C(CNc1cccnc1)NC(c1ccccc1Cl)c1cc(Cl)c2cccnc2c1O (stereo not shown)', 4.23),
  ('Cc1ccc(C(NC(=O)CNc2cccnc2)c2cc(Cl)c3cccnc3c2O)cc1 (stereo not shown)', 3.99),
  ('O=C(NC(c1ccccc1)c1cc(Cl)c2cccnc2c1O)c1ccccc1 (stereo not shown)', 3.12),
  ('CN(CC(=O)NC(c1ccccc1Cl)c1cc(Cl)c2cccnc2c1O)Cc1ccccc1 (stereo not shown)', 3.12),
  ('O=C(COc1ccccc1)NC(c1ccccc1Cl)c1ccc2cccnc2c1O (stereo not shown)', 3.40);

----------
- Assayed system: recombinant human Aggrecanase-2 Agg2-Phe628 (Homo sapiens, UniProt Q9UNA0)
- Assay protocol: Aggrecanase 2 in vitro enzyme assay (Agg-2 FRET, quenched fluorescent peptide substrate)
- Assay type: biochemical
- Set-up: purified recombinant human Aggrecanase-2 Agg2-Phe628 (MW=41,737); This is a truncated form of full-length human aggrecanase-2; made in house; host or cells: CHO cells
- Cond: concentration not given
Attribute measured: Agg-2 FRET Median PCT INHIB (%)

INSERT INTO assay_data (compound, attribute_measured, numeric_result) VALUES
  ('Cc1cc(OCC(=O)NC(c2cccc([N+](=O)[O-])c2)c2cc(Cl)c3cccnc3c2O)ccc1Cl (stereo not drawn)', 'Agg-2 FRET Median PCT INHIB', 53),
  ('O=C(CNCc1ccncc1)NC(c1ccccc1)c1cc(Cl)c2cccnc2c1O (stereo not drawn)', 'Agg-2 FRET Median PCT INHIB', 29),
  ('O=C(COc1ccccc1)NC(c1ccc(-c2ccccc2)o1)c1cc(Cl)c2cccnc2c1O (stereo not drawn)', 'Agg-2 FRET Median PCT INHIB', 54),
  ('O=C(CN1CCC(c2ccccc2)CC1)NC(c1ccccc1)c1cc(Cl)c2cccnc2c1O (stereo not drawn)', 'Agg-2 FRET Median PCT INHIB', 57),
  ('Cc1ccc(C(NC(=O)COc2ccccc2)c2cc(Cl)c3cccnc3c2O)c(C)c1 (stereo not drawn)', 'Agg-2 FRET Median PCT INHIB', 60),
  ('O=C(COc1ccccc1)NC(c1ccc(Cl)cc1Cl)c1cc(Cl)c2cccnc2c1O (stereo not drawn)', 'Agg-2 FRET Median PCT INHIB', 57),
  ('COc1c(C(NC(=O)COc2ccccc2)c2ccccc2)cc(Cl)c2cccnc12 (stereo not drawn)', 'Agg-2 FRET Median PCT INHIB', 50),
  ('O=C(CCc1ccccc1)NC(c1ccccc1)c1cc(Cl)c2cccnc2c1O (stereo not drawn)', 'Agg-2 FRET Median PCT INHIB', 23),
  ('Cc1ccccc1C(NC(=O)CCCc1ccccc1)c1cc(Cl)c2cccnc2c1O (stereo not drawn)', 'Agg-2 FRET Median PCT INHIB', 49);

----------
- Assayed system: recombinant human Aggrecanase-2 Agg2-Phe628 (Homo sapiens)
- Assay protocol: Aggrecanase 2 in vitro enzyme assay (Agg-2 FRET, quenched fluorescent peptide substrate)
- Format: biochemical
- Design: purified recombinant human Aggrecanase-2 Agg2-Phe628 (MW=41,737); This is a truncated form of full-length human aggrecanase-2; made in house; host or cells: CHO cells
- Cond: read-out: Agg2 IC50
The reader will find reported IC50 values listed item by item below.
Attribute measured: IC50 (µM)

INSERT INTO measurements (molecule, unit_abbrev, numeric_result) VALUES
  ('O=C(COc1ccc(-c2ccccc2)cc1)NC(c1ccccc1Cl)c1cc(Cl)c2cccnc2c1O (stereo not drawn)', 'µM', 3.3),
  ('COc1ccc(C(NC(=O)COc2ccccc2)c2cc(Cl)c3cccnc3c2O)cc1OCc1ccccc1 (stereo not drawn)', 'µM', 1.04),
  ('O=C(CNCc1cccc2ccccc12)NC(c1ccccc1)c1cc(Cl)c2cccnc2c1O (stereo not drawn)', 'µM', 1.56),
  ('COc1ccccc1C(NC(=O)COc1ccccc1)c1cc(Cl)c2cccnc2c1O (stereo not drawn)', 'µM', 2.3),
  ('O=C(COc1ccccc1)NC(c1ccccc1)c1cc(Br)c2cccnc2c1O (stereo not drawn)', 'µM', 2.48),
  ('O=C(CCl)NC(c1ccccc1)c1cc(Br)c2cccnc2c1O (stereo not drawn)', 'µM', 5.4),
  ('Cc1ccc(C(NC(=O)COc2ccccc2)c2cc(Cl)c3cccnc3c2O)cc1C (stereo not drawn)', 'µM', 1.5),
  ('O=C(COc1ccccc1)NC(c1cccc2c1OCO2)c1cc(Cl)c2cccnc2c1O (stereo not drawn)', 'µM', 1.4);
